Exercise: state measured Wavelength (nm) mean for each of the molecules provided.
# ASSAY_INFO: Bioluminescence emission spectra
# Type: physicochemical
# EXPERIMENTAL_CONDITIONS: emission spectrum with native coelenterazine

Given the molecule C124A/L203R: RLuc mutant C124A/L203R (protein) MASKVYDPEQRKRMITGPQWWARCKQMNVLDSFINYYDSEKHAENAVIFLHGNAASSYLWRHVVPHIEPVARCIIPDLIGMGKSGKSGNGSYRLLDHYKYLTAWFELLNLPKKIIFVGHDWGAALAFHYSYEHQDKIKAIVHAESVVDVIESWDEWPDIEEDIALIKSEEGEKMVLENNFFVETMLPSKIMRKLEPEEFAAYREPFKEKGEVRRPTLSWPREIPLVKGGKPDVVQIVRNYNAYLRASDDLPKMFIESDPGFFSNAIVEGAKKFPNTEFVKVKGLHFSQEDAPDEMGKYIKSFVERVLKNEQ , what is its reported Wavelength (nm) mean? 501 nm

How about this molecule: C124A/S130A: RLuc mutant C124A/S130A (protein) MASKVYDPEQRKRMITGPQWWARCKQMNVLDSFINYYDSEKHAENAVIFLHGNAASSYLWRHVVPHIEPVARCIIPDLIGMGKSGKSGNGSYRLLDHYKYLTAWFELLNLPKKIIFVGHDWGAALAFHYAYEHQDKIKAIVHAESVVDVIESWDEWPDIEEDIALIKSEEGEKMVLENNFFVETMLPSKIMRKLEPEEFAAYLEPFKEKGEVRRPTLSWPREIPLVKGGKPDVVQIVRNYNAYLRASDDLPKMFIESDPGFFSNAIVEGAKKFPNTEFVKVKGLHFSQEDAPDEMGKYIKSFVERVLKNEQ 498 nm

Note, next up: C124A/K300A: RLuc mutant C124A/K300A (protein) MASKVYDPEQRKRMITGPQWWARCKQMNVLDSFINYYDSEKHAENAVIFLHGNAASSYLWRHVVPHIEPVARCIIPDLIGMGKSGKSGNGSYRLLDHYKYLTAWFELLNLPKKIIFVGHDWGAALAFHYSYEHQDKIKAIVHAESVVDVIESWDEWPDIEEDIALIKSEEGEKMVLENNFFVETMLPSKIMRKLEPEEFAAYLEPFKEKGEVRRPTLSWPREIPLVKGGKPDVVQIVRNYNAYLRASDDLPKMFIESDPGFFSNAIVEGAKKFPNTEFVKVKGLHFSQEDAPDEMGKYIASFVERVLKNEQ 497 nm

Query A54P/C124A: RLuc mutant A54P/C124A (protein) MASKVYDPEQRKRMITGPQWWARCKQMNVLDSFINYYDSEKHAENAVIFLHGNPASSYLWRHVVPHIEPVARCIIPDLIGMGKSGKSGNGSYRLLDHYKYLTAWFELLNLPKKIIFVGHDWGAALAFHYSYEHQDKIKAIVHAESVVDVIESWDEWPDIEEDIALIKSEEGEKMVLENNFFVETMLPSKIMRKLEPEEFAAYLEPFKEKGEVRRPTLSWPREIPLVKGGKPDVVQIVRNYNAYLRASDDLPKMFIESDPGFFSNAIVEGAKKFPNTEFVKVKGLHFSQEDAPDEMGKYIKSFVERVLKNEQ next 482 nm
